Provenance of the data: the Human Domainome abundance scans (Beltran et al. 2025)

B1: Pituitary-specific positive transcription factor 1, residues 130 to 198; numbered along this chain, P28069 (parent)
chain: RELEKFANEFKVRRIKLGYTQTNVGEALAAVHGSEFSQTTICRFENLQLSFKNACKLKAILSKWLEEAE

- Variants of: B1
- METHOD_DESCRIPTION: abundance fitness (aPCA) (normalised: wild type 0, dead -1); higher = more abundant; growth selection in yeast, the domain comes from the species named
- ASSAY_CONDITIONS: Homo sapiens
Note: every record was labeled by where its abundance fitness sits among I = under -0.5, II = from -0.5 up to -0.1, III = -0.1 and over

Task: Class label required: RELEKFANEFKVRRHKLGYTQTNVGEALAAVHGSEFSQTTICRFENLQLSFKNACKLKAILSKWLEEAE [I15H]
Output: II

Task: Class label required: RELEKFANMFKVRRIKLGYTQTNVGEALAAVHGSEFSQTTICRFENLQLSFKNACKLKAILSKWLEEAE [E9M]
Output: II

Task: Class label required: RELEKFANEFKVRRIKLGYTQCNVGEALAAVHGSEFSQTTICRFENLQLSFKNACKLKAILSKWLEEAE [T22C]
Output: II

Task: Class label required: REREKFANEFKVRRIKLGYTQTNVGEALAAVHGSEFSQTTICRFENLQLSFKNACKLKAILSKWLEEAE [L3R]
Output: I

Task: Class label required: RELEKFANEFKVRRIKLGYTQTNVGEALAAVHGSEFSQTTICRFENLQLSFKNACKLKDILSKWLEEAE [A59D]
Output: III

Task: Class label required: RELEKFANEFKVRRIKLGYTQTNVGEALAAVHGSEFSQTTICRFENLQLSFKNACKLKAILSSWLEEAE [K63S]
Output: III

Task: Class label required: RELEKFANEFKVRRIKLGYTQTNVTEALAAVHGSEFSQTTICRFENLQLSFKNACKLKAILSKWLEEAE [G25T]
Output: II

Task: Class label required: RELEKFANEFKVRRIKLGYTQTNVGEALAAVHGSEFSQTTICRFENHQLSFKNACKLKAILSKWLEEAE [L47H]
Output: III

Task: Class label required: RELEKFANEFKVRRIKLGYTQTNVGEALAAVHGSEFSQTTICRFENLQLSFKNACKLKEILSKWLEEAE [A59E]
Output: III

Task: Class label required: RELEEFANEFKVRRIKLGYTQTNVGEALAAVHGSEFSQTTICRFENLQLSFKNACKLKAILSKWLEEAE [K5E]
Output: III

Task: Class label required: RELEKFANEFKVRRIKLGYWQTNVGEALAAVHGSEFSQTTICRFENLQLSFKNACKLKAILSKWLEEAE [T20W]
Output: I

Task: Class label required: RELEKFANEFKVRRIKLGYTQTNVGEALAAVHGSEFSQTTICRFENLQLSFKKACKLKAILSKWLEEAE [N53K]
Output: III

Task: Class label required: RELEKFANEFKVRRIKLGYTQTNVGEALAAVHGSEFSQTTICRQENLQLSFKNACKLKAILSKWLEEAE [F44Q]
Output: I

Task: Class label required: RELEKFANEFKVRRIKLGYTQTNVGEALAAVHGSEFSQTTICRFENLQLSFKNACKLKAILSMWLEEAE [K63M]
Output: II

Task: Class label required: RELEKFANEFKVRRIKLGYTQTNVGEALAAVHGSEFSQTTICRFENLQLSFKNCCKLKAILSKWLEEAE [A54C]
Output: II

Task: Class label required: RELEKFANEFKVRRIKLGYTQTNVGEALAAVHGSEFSQTTICVFENLQLSFKNACKLKAILSKWLEEAE [R43V]
Output: I

Task: Class label required: RELEKFANEFIVRRIKLGYTQTNVGEALAAVHGSEFSQTTICRFENLQLSFKNACKLKAILSKWLEEAE [K11I]
Output: II

Task: Class label required: RELEKFANEFCVRRIKLGYTQTNVGEALAAVHGSEFSQTTICRFENLQLSFKNACKLKAILSKWLEEAE [K11C]
Output: I

Task: Class label required: RELEKFANEFKVRRAKLGYTQTNVGEALAAVHGSEFSQTTICRFENLQLSFKNACKLKAILSKWLEEAE [I15A]
Output: II

Task: Class label required: RELEKFANEFKVRRIKLGYTQTNVGEALAAVHGSPFSQTTICRFENLQLSFKNACKLKAILSKWLEEAE [E35P]
Output: II

Task: Class label required: RELEKFANEFKVRRIKLGYTQTNVGEALAAVHGSEFSQTTICRFENLQLSFKNACKLTAILSKWLEEAE [K58T]
Output: II

Task: Class label required: RELEKFANEFKVRRIKLGYTQTNVGEALAAVHGSEFSQTTICRFENLQLSFKNACKLKAILSKNLEEAE [W64N]
Output: II

Task: Class label required: RELEKFANEFKVRRIKLGYTQTNVGEALAAVHGSMFSQTTICRFENLQLSFKNACKLKAILSKWLEEAE [E35M]
Output: II
